tested on: SK-MEL-5 melanoma; experiment: NCI tumour cell line growth inhibition, 48 h
Could you please report measured GI50 for the items listed next?

COMPOUND	GI50
CCOC(=O)c1cc(-c2ccc(OC)c(OC)c2)[nH]c1N/N=C/c1c(Cl)cccc1Cl	0.956 µM
O=C(Cn1c(C(=O)c2ccccc2)nc2ccccc21)c1ccc(F)cc1	4.13 µM
CC(C)CCC(=O)[C@@H](C)[C@H]1[C@@H](OC2OCC(O)C(O)C2NS(C)(=O)=O)C[C@H]2[C@@H]3CC=C4C[C@@H](O)CC[C@]4(C)[C@H]3CC[C@]12C (some centres undefined)	1.26 µM

Consider now this further compound.
Exercise: Item Cc1cn2c(/C=C3/C(=O)Nc4ccc(F)cc43)c(C)nc2s1 has what recorded GI50?
Key: 2.31 µM

* * *

system: MDA-MB-435; assay: NCI tumour cell line growth inhibition, 48 h
RECORDED METRIC: TGI (µM)
Give bare numbers, in µM.

Use these answered entries as a reference point.
COMPOUND	RECORDED METRIC	ASSAY VALUE
O=[N+]([O-])c1cccc2nc3ccccc3c(NCCCN3CCCCC3)c12	TGI	0.0227
C=C1CC(COc2ccc3c(C)cc(=O)oc3c2)(c2ccccc2)OC1=O (stereo not given)	TGI	8.03
CC(Oc1ccccc1Cl)C(=O)NN1C(=O)CSC1c1ccc(Cl)cc1 (stereo not given)	TGI	31.1

Exercise: Item CN(C)Cc1cc(N=Nc2ccc(Cl)cc2)ccc1O has what recorded TGI?
Key: 30.3

* * *

system: HOP-62 NSCLC; assay: NCI tumour cell line growth inhibition, 48 h
Where a SMILES comes first, the peptide text is derived from it. [ ]: non-standard residue; d: D form. 2Nal = N[CH](Cc1ccc2ccccc2c1)C(=O)O
Answer Not satisfied if TGI is under 40 µM, and Satisfied if it is 40 µM or more.

Answered examples (3):
MOLECULE	DISCRETE LABEL
CC(C)C(NC(=O)C(CCCCN)NC(=O)C(Cc1c[nH]c2ccccc12)NC(=O)C(Cc1ccc(O)cc1)NC(=O)C(CS)NC(=O)C(N)Cc1ccc2ccccc2c1)C(=O)NC(CS)C(=O)NC(C(N)=O)C(C)O (stereo not given) (H-[2Nal]CYWKVCT-NH2; configuration not given here)	Satisfied
O=[As](O)(O)c1ccc2nc3cc([As](=O)(O)O)ccc3nc2c1	Satisfied
CC1=NN(C(=O)c2ccncc2)C(=O)C1N=Nc1ccc2ccccc2c1 (stereo not given)	Satisfied

Exercise: Determine whether measured TGI meets or exceeds 40 µM for O=[N+]([O-])c1cccc2nc3ccccc3c(NCCCN3CCCCC3)c12
Key: Not satisfied

Exercise: Determine whether measured TGI meets or exceeds 40 µM for CC(=O)NC(CCCCN(Cc1ccccc1)C(=O)N(CCCl)N=O)C(=O)NCc1ccccc1 (stereo not given)
Key: Satisfied

Exercise: Determine whether measured TGI meets or exceeds 40 µM for CC(=O)N=C1N(/C=C2\C(=O)Oc3ccccc3C2=O)C(=O)/C(=C/c2ccccc2Cl)N1C
Key: Satisfied

* * *

system: NCI-H23 lung; assay: NCI tumour cell line growth inhibition, 48 h; in the data active means GI50 below about 0.43 µM; inactive means the rest
Select the correct class. Options are y (active), n (inactive) and nothing else.

Exercise: Dear all, I need the recorded test outcome for CC(C)CCC(=O)[C@@H](C)[C@H]1[C@@H](OC2OCC(O)C(O)C2NS(C)(=O)=O)C[C@H]2[C@@H]3CC=C4C[C@@H](O)CC[C@]4(C)[C@H]3CC[C@]12C (stereo partly drawn) , thank you.
Key: n

Exercise: Dear all, I need the recorded test outcome for O=S(=O)(Nc1ccc2ccccc2c1)c1ccc(-c2cnc(C3CC3)o2)cc1 , thank you.
Key: n

Exercise: Dear all, I need the recorded test outcome for CC(=O)C1CCC2C3CC=C4CC(SC(=N)N)CCC4(C)C3CCC12C (stereo not drawn) , thank you.
Key: n

Exercise: Dear all, I need the recorded test outcome for CCOC(=O)c1cc(-c2ccc(OC)c(OC)c2)[nH]c1N/N=C/c1c(Cl)cccc1Cl , thank you.
Key: n

Exercise: Dear all, I need the recorded test outcome for N#Cc1c(N)nc(N2CCSCC2)c(C#N)c1-c1ccc(O)cc1 , thank you.
Key: n

Exercise: Dear all, I need the recorded test outcome for COC(=O)c1ccc2c(c1)c1c(C)c3ccncc3c(C)c1n2C , thank you.
Key: y

Exercise: Dear all, I need the recorded test outcome for CC(C)(C)NC/C(=C\c1ccccc1)C(=O)c1ccccc1 , thank you.
Key: n

Exercise: Dear all, I need the recorded test outcome for CC[C@]12C=CCN3CC[C@@]4(c5ccc(OC)cc5N(C)[C@H]4[C@@](O)(C(=O)OC)[C@@H]1OC(=O)CCC(=O)N[C@H](Cc1c[nH]c4ccccc14)C(=O)OC)[C@@H]32 , thank you.
Key: n
